Listing of recorded EC50 by entry.
Biological target: hGPR120 (Homo sapiens, UniProt Q5NUL3)
Sequence (Q5NUL3 whole entry): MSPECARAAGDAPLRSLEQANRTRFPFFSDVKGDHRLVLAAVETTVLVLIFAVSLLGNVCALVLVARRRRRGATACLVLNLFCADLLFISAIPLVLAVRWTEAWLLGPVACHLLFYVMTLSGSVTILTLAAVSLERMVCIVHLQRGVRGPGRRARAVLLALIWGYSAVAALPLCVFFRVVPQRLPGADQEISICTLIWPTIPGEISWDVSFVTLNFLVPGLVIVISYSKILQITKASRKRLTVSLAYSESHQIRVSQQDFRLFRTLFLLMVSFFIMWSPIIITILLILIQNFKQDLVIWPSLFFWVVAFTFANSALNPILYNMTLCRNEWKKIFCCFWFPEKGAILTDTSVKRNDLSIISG
Assay: Measurement of Activity of GPR120 Agonist (Cell-Based Assay), Calcium 5 dye fluorescence
Conditions: CHO-K1 cells expressing Ga16 and hGPR120

Form: compound = O=C(O)CC1CCN(c2c(F)cc(-c3cccc4c3OC3(CCCC3)O4)cc2F)CC1 ; EC50 = 200 to 2000 nM

Form: compound = CCCOc1cccc(-c2cc(F)c(N(C)CCCC(=O)O)c(F)c2)c1OCCC ; EC50 = 200 to 2000 nM

Form: compound = O=C(O)CC1CCN(c2c(F)cc(-c3cccc(OCC4CC4)n3)cc2Cl)CC1 ; EC50 = 200 to 2000 nM

Form: compound = O=C(O)CCCOc1ccc(-c2cc(F)cc(OC3CCC3)c2)cc1F ; EC50 = < 200 nM

Form: compound = O=C(O)CCCOc1c(F)cc(-c2csc(OC3CCC3)n2)cc1Cl ; EC50 = < 200 nM

Form: compound = CC(C)(CCCC(=O)O)c1ccc(-c2cccnc2SC2CCCC2)cc1 ; EC50 = 200 to 2000 nM

Form: compound = O=C(O)COCC(F)(F)c1ccc(-c2cccnc2SC2CCC2)cc1 ; EC50 = 2000 to 20000 nM

Form: compound = O=C(O)CCCOc1c(F)cc(-c2cccc(OCc3ccccc3)c2)cc1F ; EC50 = 2000 to 20000 nM

Form: compound = O=C(O)CCC1CCc2cc(-c3cccnc3OC3CCCC3)ccc2S1 (stereo not shown) ; EC50 = < 200 nM

Form: compound = CN(CCCC(=O)O)c1c(F)cc(-c2cncc(OC3CCC3)n2)cc1F ; EC50 = < 200 nM
